apparent KD of MS2 coat protein values by entry
Tested on: MS2 coat protein
assay protocol: apparent KD of MS2 coat protein; designed switch direction (-1 OFF switch, 1 ON switch): -1; higher = weaker reporter binding
condition notes: input ligand: none
A complete answer gives the number followed by the unit.

>>> reported_result("UUUAUGUAAGGAUAUAUGGGUUUAAAUGAAAAUUUGGGCCCAUAGAAGGUACAUGAGGAUCACCCAUGUAGUGG [-24.4, -24.3 kcal, 32% A] (Eterna round: R97, puzzle: Exclusion 4)")
"641 nM"

*Q* What value of apparent KD of MS2 coat protein has been reported for the following sequence? ACAUGUAAUGCAGGAUAUUUGACACAUGAGGAUCACCCAUGUGACCAGAGGAAUUGCUAUGAGUCGAAGAAGGGUAUGUACAUG [Ex NG2 #55] (Eterna round: R96, puzzle: Exclusion NG 2)
*A* 42.9 nM

*Q* Let us now turn to UGUGCUUCAGGAUAUACGUGACGUCCGUGAGGACGAAGGUUACAUGAGGAUCACCCAUGUAGAAGGGAAGUACU [Mat - Exclusion 2 - JL Mod - D30] (Eterna round: R97, puzzle: Exclusion 2)
*A* 20.2 nM

*Q* Let us now turn to CUUAGGUGAGGAUAUUAGUAGUAAAUAAAUAAAAUUAUUACUGAGAAGGCACAUGAGGAUCACCCAUGUUCCUC [Salish 062 v3] (Eterna round: R97, puzzle: Exclusion 4)
*A* 37 nM

*Q* Let us now turn to CGAUGAGGAGUGAGGAUAUCGUGUUCGAAAGAACGUGAGAAGGCACAUGAGGAUCACCCAUGUGAUACUUGUCG [Omei Ex4B A15] (Eterna round: R97, puzzle: Brourd's mod of Exclusion 4)
*A* 19.6 nM

*Q* Let us now turn to CUGAACUGAGGAUAUACAUGAGGAUCACCCAUGUGAUGUAGUGCACGCGUACGUGUACGUAGAAGGCAGUUCAG [Mat - Exclusion 3 - Eli Mod - D42] (Eterna round: R97, puzzle: Exclusion 3)
*A* 19.8 nM

*Q* Let us now turn to GUGGUACAUGAGGAUCACCCAUGUAAGGAUAUAGUCGUCUGGUGGUCGCGGGUGGUGGCUAGAAGGUGCGUGCG [-19.6, -16.8 kcal, A 19%] (Eterna round: R97, puzzle: Exclusion 1)
*A* 125 nM

---

System: MS2 coat protein
assay protocol: apparent KD of MS2 coat protein; higher = weaker reporter binding
condition notes: Eterna round: R107; input ligand: theophylline 2 mM
endpoint: apparent KD of MS2 coat protein (nM)
Write it as a number; the unit nM goes unstated.

>>> reported_result("UGACAUGAGGAUCACCCAUGUUUAGAUGAACGAGGACCGGUACGGCCGCCACUCGAUAAGUGGAAAGAGCGAGGGAUCGCAUGCU [Same State Trp A GF5]")
12.9
>>> reported_result("UGUUAUUUCCGAAGGAGCGGGAUACAUGAGGAUCACCCAUGUACAUGAGGAUCAACAUGAACCCAGGUAGGUCGCGGAUUUUGUC [Exclusion Arginine B 3]")
379

As a next step, examine the sequence that follows.
*Q* What value of apparent KD of MS2 coat protein has been reported for the following sequence? GGAGUAGGAAACUAUUCCAAUCCUCGUGAACGAGGACCGGUACGGCCGCCACUCGAUAAUUAAUAACAUGAGGAUCACCCAUGUA [Ex Tryptophan A 21]
*A* 89
